Give abundance fitness for every item shown.
B1: DnaJ homolog subfamily C member 5, residues 16 to 77; numbered along this chain, Q9H3Z4 (parent)
chain: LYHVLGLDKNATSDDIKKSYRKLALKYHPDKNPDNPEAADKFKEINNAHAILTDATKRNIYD

# Variants of: B1
# assayProcedure: abundance fitness (aPCA) (normalised: wild type 0, dead -1); higher = more abundant; growth selection in yeast, the domain comes from the species named
# assaySetup: Homo sapiens

Exam item: Record request: abundance fitness value, item Y2I
Marked response: -0.809

Exam item: Quick one: abundance fitness of S19G ?
Marked response: -0.3

Exam item: Please give the measured abundance fitness for this variant: L23G
Marked response: -0.308

Exam item: Find the recorded abundance fitness belonging to L7P and report it.
Marked response: -0.231

Exam item: Recorded abundance fitness of I51W , please.
Marked response: -0.712

Exam item: GET /values?readout=abundance fitness&item= I45Q
Marked response: -0.45

Exam item: Please give the measured abundance fitness for this variant: S19Q
Marked response: 0.042

Exam item: Which abundance fitness value is on record for L7V ?
Marked response: -0.103

Exam item: Fill blank: measured abundance fitness of the variant V4Y is ____.
Marked response: -0.553

Exam item: Name the reported abundance fitness value associated with the variant E37V
Marked response: 0.041

Exam item: Give its abundance fitness value. Item: H28D
Marked response: 0.062
